- Subject of test: human D2 receptors (Homo sapiens)
- Construct: expressed in transfected cells; host or cells: HEK293
- Sequence (P14416 whole entry): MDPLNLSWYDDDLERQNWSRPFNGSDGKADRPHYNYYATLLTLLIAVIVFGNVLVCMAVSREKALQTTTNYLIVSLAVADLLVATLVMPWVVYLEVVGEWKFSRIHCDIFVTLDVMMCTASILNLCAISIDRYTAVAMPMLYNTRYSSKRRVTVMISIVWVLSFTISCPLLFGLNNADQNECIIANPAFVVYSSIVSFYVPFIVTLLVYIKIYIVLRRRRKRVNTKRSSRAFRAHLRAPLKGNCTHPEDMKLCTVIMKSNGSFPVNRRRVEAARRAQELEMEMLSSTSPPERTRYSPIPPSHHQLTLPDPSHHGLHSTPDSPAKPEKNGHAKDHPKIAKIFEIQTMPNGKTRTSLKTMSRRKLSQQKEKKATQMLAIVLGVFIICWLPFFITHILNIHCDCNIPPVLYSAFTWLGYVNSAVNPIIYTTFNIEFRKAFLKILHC
- Measurement protocol: Radioligand binding assay with [125I]IABN, D2 receptor
- Run parameters: [125I]IABN, D2 receptors expressed in HEK cells; mean ± SEM, three experiments; HCl salts; read-out: Ki ± SEM (nM) D2
Labelling: Ki reported below 300 nM becomes T; at or above becomes F.

Compound | Group label
CCN(CCCCN(C)C)CCNC(=O)c1cc(CCCF)cc(OC)c1OC | F
CCN(CCCCSc1nnc(-c2ccccc2)n1C)CCNC(=O)c1cc(Br)cc(OC)c1OC [11a] | F
CCN(C)CCNC(=O)c1cc(Br)cc(OC)c1OC | T
CCN(CCCNC(=O)c1ccncc1)CCNC(=O)c1cc(Br)cc(OC)c1OC [21f] | F
CCN(CCCCCN(C)C)CCNC(=O)c1cc(CCCF)cc(OC)c1OC | F
CCN(CCCNC(=O)c1cc2ccccc2n1C)CCNC(=O)c1cc(Br)cc(OC)c1OC [21j] | T
COc1cc(Br)cc(C(=O)NCCN(CCCNC(=O)c2ccc(-c3cccs3)cc2)Cc2ccc(F)cc2)c1OC [20c] | F
CCN(CCCNC(=O)c1ccc(-c2ccsc2)cc1)CCNC(=O)c1cc(Br)cc(OC)c1OC [21g] | F
CCCN(CCCNC(=O)c1ccc(-c2cccs2)cc1)CCNC(=O)c1cc(Br)cc(OC)c1OC [20a] | T
CCN(CCCCCSc1nnc(-c2ccccc2)n1C)CCNC(=O)c1cc(Br)cc(OC)c1OC [11b] | T
CCN(C)CCCNC(=O)c1ccc(-c2cccs2)cc1 | F
CCN(CCCNC(=O)c1ccc(-c2ccncc2)cc1)CCNC(=O)c1cc(Br)cc(OC)c1OC [21c] | T
CCN(CCCCN(C)C)CCNC(=O)c1cc(Br)cc(OC)c1OC | F
CCN(CCCNC(=O)c1cccc(N(C)C)c1)CCNC(=O)c1cc(Br)cc(OC)c1OC [21h] | T
CCN(CCCNC(=O)c1ccc2ccccc2c1)CCNC(=O)c1cc(Br)cc(OC)c1OC [21a] | T
C=CCN(CCCNC(=O)c1ccc(-c2cccs2)cc1)CCNC(=O)c1cc(Br)cc(OC)c1OC [20b] | T
CCN(CCCCCN(C)C)CCNC(=O)c1cc(Br)cc(OC)c1OC | F
CCN(CCCNC(=O)c1cn2ccccc2n1)CCNC(=O)c1cc(Br)cc(OC)c1OC [21e] | T
CCN(CCCNC(=O)c1cc2ccccc2[nH]1)CCNC(=O)c1cc(Br)cc(OC)c1OC [21d] | T
CCN(CCCCNC(=O)c1ccc(-c2cccs2)cc1)CCNC(=O)c1cc(Br)cc(OC)c1OC | T
